- ASSAY DETAILS: qHTS assay to identify small molecule antagonists of the sonic hedgehog signaling (Shh) pathway (AID 1259369); note: nearly all actives have a fitted effect of over 45% in size; note: potency is the fitted concentration of half-maximal effect
- CONDITIONS: NIH/3T3 Gli1-Luc reporter, Shh antagonist, luminescence 24 h; series mostly up to 92.4 µM
Inconclusive results are not listed. Active and inactive are the calls of the source. Calls come from the whole dose curve.
ENDPOINT: Potency

Reference set (4 entries):
- CC(C)C=O: inactive
- O=C(OC(=O)c1ccccc1)c1ccccc1: inactive
- CC(C)(C)C(=O)C(=O)O: inactive
- CCCCN(CCCC)C(C(N)=O)c1ccc(OC)cc1 (stereo not given): inactive

Query block: What does the data say about its Potency? Entry: Cc1cscn1
Result block: inactive

Query block: Next record, please: COC(=O)c1nc(Cl)c(Cl)nc1N
Result block: 0.75 µM (active)

Query block: Now the same for O=C1c2ccccc2C(=O)C1(O)O
Result block: 15.4 µM (active)

Ref: PubChem BioAssay (Tox21)
